Target or system: α1a-AR (Homo sapiens, UniProt P35348)
Construct: expressed in transfected cells; host or cells: COS-7
Sequence (P35348 whole entry): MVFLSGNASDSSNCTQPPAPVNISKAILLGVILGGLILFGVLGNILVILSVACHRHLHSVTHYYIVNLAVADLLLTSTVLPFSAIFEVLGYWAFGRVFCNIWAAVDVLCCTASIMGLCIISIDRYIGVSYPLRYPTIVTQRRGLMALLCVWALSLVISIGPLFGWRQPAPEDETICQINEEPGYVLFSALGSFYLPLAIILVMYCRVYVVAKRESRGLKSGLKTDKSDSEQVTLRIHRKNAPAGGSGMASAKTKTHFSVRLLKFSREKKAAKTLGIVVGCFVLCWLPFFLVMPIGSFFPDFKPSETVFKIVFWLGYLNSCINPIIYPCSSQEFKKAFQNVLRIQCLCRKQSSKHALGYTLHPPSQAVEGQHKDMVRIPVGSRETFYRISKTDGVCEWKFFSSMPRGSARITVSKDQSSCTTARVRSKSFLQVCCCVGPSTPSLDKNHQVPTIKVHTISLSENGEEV
Method: α1-Adrenergic receptor radio-ligand (125I-HEAT) binding assay, α1a subtype
Recorded conditions: COS-7 cell membranes transfected with α1a-AR, 125I-HEAT 50 pM; read-out: Receptor Binding, Ki α1a-AR
pKi: −log10 of the molar value.
Mark condition met for reported pKi of 8 or greater; mark condition not met for anything smaller.

Item "CC(=O)Nc1ccc(S(=O)(=O)Nc2ccc3c(c2)N(C(=O)c2cccc(CN4CCN(c5ccccc5OC(C)C)CC4)c2)CC3)cc1" with pKi of 8 or above?
condition met

Others:
Item "O=C(c1ccc(CN2CCN(c3ccccc3OCC(F)(F)F)CC2)cc1)N1CCc2ccccc21" with pKi of 8 or above?
condition not met

Item "CCOC(OCC)c1ccc(CNc2ccc3c(c2)N(C(=O)c2ccc(CN4CCC(c5ccccc5OC)CC4)cc2)CC3)cc1" with pKi of 8 or above?
condition not met

Item "CC(C)Oc1ccccc1N1CCN(Cc2cccc(C(=O)N3CCc4ccc(NS(=O)(=O)c5cccc6c(N(C)C)cccc56)cc43)c2)CC1" with pKi of 8 or above?
condition met

Item "CC(C)Oc1ccccc1N1CCN(Cc2cccc(C(=O)N3CCc4cc(Br)ccc43)c2)CC1" with pKi of 8 or above?
condition met

Item "COc1ccc(OC)c2c1CC(Nc1ccc3c(c1)N(C(=O)c1cccc(CN4CCN(c5ccccc5OC(C)C)CC4)c1)CC3)C2" with pKi of 8 or above?
condition not met

Item "CC(=O)Nc1ccc(S(=O)(=O)Nc2ccc3c(c2)CCN3C(=O)c2cccc(CN3CCN(c4ccccc4OC(C)C)CC3)c2)cc1" with pKi of 8 or above?
condition not met

====

Target or system: α1b-AR (Homo sapiens)
Construct: expressed in transfected cells; host or cells: COS-7
Sequence (P35368 1-520): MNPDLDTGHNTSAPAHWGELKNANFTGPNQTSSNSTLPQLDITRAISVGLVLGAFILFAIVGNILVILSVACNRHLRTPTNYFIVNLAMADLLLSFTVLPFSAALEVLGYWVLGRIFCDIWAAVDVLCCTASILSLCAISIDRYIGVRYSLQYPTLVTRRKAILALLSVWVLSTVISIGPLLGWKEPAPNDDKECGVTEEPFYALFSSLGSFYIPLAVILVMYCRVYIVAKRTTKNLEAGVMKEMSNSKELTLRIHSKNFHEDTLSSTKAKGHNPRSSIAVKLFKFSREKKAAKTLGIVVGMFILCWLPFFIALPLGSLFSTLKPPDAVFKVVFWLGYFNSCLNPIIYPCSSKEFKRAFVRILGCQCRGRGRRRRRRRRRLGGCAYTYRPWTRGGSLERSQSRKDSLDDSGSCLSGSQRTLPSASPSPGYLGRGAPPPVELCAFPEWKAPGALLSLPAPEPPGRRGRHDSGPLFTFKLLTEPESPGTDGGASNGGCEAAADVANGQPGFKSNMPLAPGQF
Method: α1-Adrenergic receptor radio-ligand (125I-HEAT) binding assay, α1b subtype
Recorded conditions: COS-7 cell membranes transfected with α1b-AR, 125I-HEAT 50 pM; read-out: Receptor Binding, Ki α1b-AR
Endpoint: log10 Ki (log10 of the value in nM)
Values reflect log10 of reported Ki (nM).

Dear colleague, I am looking for the recorded log10 Ki of the following molecule: "COc1cccc(OC)c1C(=O)Nc1ccc2c(c1)N(C(=O)c1cccc(CN3CCN(c4ccccc4OC(C)C)CC3)c1)CC2"
2.90

Dear colleague, I am looking for the recorded log10 Ki of the following molecule: "CC(C)Oc1ccccc1CN1CCN(Cc2cccc(C(=O)N3CCc4ccccc43)c2)CC1"
2.82

Dear colleague, I am looking for the recorded log10 Ki of the following molecule: "CC(C)Oc1ccccc1N1CCN(Cc2cccc(C(=O)N3CCc4cc(Br)ccc43)c2)CC1"
1.92

Dear colleague, I am looking for the recorded log10 Ki of the following molecule: "CC(C)Oc1ccccc1N1CCN(Cc2cccc(C(=O)N3CCc4ccc(NS(=O)(=O)c5cccc6c(N(C)C)cccc56)cc43)c2)CC1"
2.79

Others:
Dear colleague, I am looking for the recorded log10 Ki of the following molecule: "COc1ccccc1C1CCN(Cc2ccc(C(=O)N3CCc4ccccc43)cc2)CC1"
2.66

Dear colleague, I am looking for the recorded log10 Ki of the following molecule: "CC(C)Oc1ccccc1N1CCN(Cc2cccc(C(=O)N3CCc4ccc(NCc5c(F)cccc5F)cc43)c2)CC1"
2.93
